assayed-system: T1, PUF4 RNA-binding domain (Saccharomyces cerevisiae, UniProt P25339 537-888)
T1 sequence: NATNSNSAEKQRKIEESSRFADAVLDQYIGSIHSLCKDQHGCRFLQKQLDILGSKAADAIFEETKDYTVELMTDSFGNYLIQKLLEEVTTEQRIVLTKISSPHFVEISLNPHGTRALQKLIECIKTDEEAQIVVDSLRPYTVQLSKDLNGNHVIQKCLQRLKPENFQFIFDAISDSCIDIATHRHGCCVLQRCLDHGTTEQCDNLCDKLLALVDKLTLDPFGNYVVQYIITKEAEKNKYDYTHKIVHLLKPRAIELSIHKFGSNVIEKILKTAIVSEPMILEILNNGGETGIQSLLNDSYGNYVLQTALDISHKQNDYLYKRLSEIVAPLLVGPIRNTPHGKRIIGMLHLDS
experiment-notes: Mg; RNA-MaP; 20 mM Na-HEPES pH 7.4, 30 mM KOAc, 0.75 mM MgCl2, 0.1% Tween-20, 5% glycerol, 0.1 mg/mL BSA, 2 mM DTT; 25 C; 0.0125-409.6 nM protein
assay-setup: tags: N-His6-TEV cleaved; C-SNAP kept, Cy3B-labelled; label: tethered on chip by stalled RNA polymerase
measure-name: log10 of Kd (log10 of the value in nM)
Units before log transform: nM; reported quantity: Kd; transform: log10.

For UCUCUUUGCACAUUAUCUCUU (ssRNA) [Ib_S1_P4E.1_K4.1_C4.1_H4.1_[T3C]_A4.1_[T5C]_F4.1_T4.1] , what is its reported log10 of Kd?
1.56

For Ic_S4_P5E.1_K5.1_C5.1_H5.1_A5.1_[T6C]_[A7T]_F5.1_[T9A]_[A10G]_T5.1 (ssRNA) RNA: UUUGACAACUGAUCGUUCUUUCUUGUAUCUUAGUUCUUUCUCGAUCAGUUGUCUUU , what is its reported log10 of Kd?
0.54

For UCUCUUUGUAUAUACGUCUCUU (ssRNA) [Ic_S1_P5E.1_K5.1_C5.1_H5.1_A5.1_[T6A]_[A7T]_F5.1_[T8A]_[T9C]_[A10G]_T5.1] , what is its reported log10 of Kd?
1.17

For Id_ii_S2_P3E.3_K3.2_C3.2_[C-2T]_[T-1A]_H3.2_A3.1_F3.1_T3.2_[T9C]_[A10C] (ssRNA) RNA: UUUGAUUAAUAUGAUAUCGUUCUUUCUUAUAUAUAUACCUUCUUUCUCGAUAUCAUAUUAAUCUUU , what is its reported log10 of Kd?
1.80

For UCUCUUUGUAUCCCAUCUCUU (ssRNA) [Ic_S1_P4E.1_K4.1_C4.1_H4.1_A4.1_[A6C]_[T7C]_F4.1_[T8C]_T4.1] , what is its reported log10 of Kd?
2.85

For UCUCUUUGUUUCAUUAUCUCUU (ssRNA) [Ib_S1_P5E.1_K5.1_C5.1_H5.1_[A4T]_A5.1_[T6C]_F5.1_T5.1] , what is its reported log10 of Kd?
1.39

For Ic_S2_P5E.1_K5.1_C5.1_H5.1_A5.1_[T6G]_[A7T]_F5.1_[T9C]_[A10C]_T5.1 (ssRNA) RNA: UUUGAUUAAUAUGAUAUCGUUCUUUCUUGUAUGUUCCUUCUUUCUCGAUAUCAUAUUAAUCUUU , what is its reported log10 of Kd?
1.08

For Id_ii_S4_P3E.2_K3.1_C3.2_[C-2G]_H3.1_A3.1_F3.1_T3.2_[T9C]_[A10C] (ssRNA) RNA: UUUGACAACUGAUCGUUCUUUCUGUUGUAUAUACCUUCUUUCUCGAUCAGUUGUCUUU , what is its reported log10 of Kd?
1.34

For UCUCUUCGUAUUUUAUCUCUU (ssRNA) [Ib_S1_P4E.1_K4.1_C4.1_H4.1_[T1C]_A4.1_[A6T]_F4.1_T4.1] , what is its reported log10 of Kd?
2.77

For Ib_S2_P4E.1_K4.1_C4.1_H4.1_A4.1_F4.1_[T8A]_[A9C]_T4.1 (ssRNA) RNA: UUUGAUUAAUAUGAUAUCGUUCUUUCUUGUAUAUACUUCUUUCUCGAUAUCAUAUUAAUCUUU , what is its reported log10 of Kd?
0.84

For UCUCUUUCUCUCGUAUUAUUAUCUCUU (ssRNA) [Ie_S1_P5E.1_K5.1_C5.1_H5.1_[+1CTCTC]_A5.1_F5.1_T5.1] , what is its reported log10 of Kd?
3.09

For Ic_S2_P4E.1_K4.1_C4.1_H4.1_A4.1_[T5C]_[A6G]_F4.1_[A9G]_T4.1 (ssRNA) RNA: UUUGAUUAAUAUGAUAUCGUUCUUUCUUGUACGUUGUUCUUUCUCGAUAUCAUAUUAAUCUUU , what is its reported log10 of Kd?
1.46

For Ic_S2_P5E.1_K5.1_C5.1_H5.1_A5.1_[T6A]_[A7T]_F5.1_[T9C]_[A10C]_T5.1 (ssRNA) RNA: UUUGAUUAAUAUGAUAUCGUUCUUUCUUGUAUAUUCCUUCUUUCUCGAUAUCAUAUUAAUCUUU , what is its reported log10 of Kd?
0.35

For UCUCUUUUACACUAUUACCUCUCUU (ssRNA) [Id_ii_S1_P4E.4_K4.3_C4.2_[C-2T]_H4.3_A4.1_F4.1_T4.2_[G10C]_[T11C]] , what is its reported log10 of Kd?
3.12

For UCUCUUUGUAUUAUUUCUAUCUCUU (ssRNA) [Ie_S1_P5E.1_K5.1_C5.1_H5.1_A5.1_F5.1_[+8TTC]_T5.1] , what is its reported log10 of Kd?
1.26

For Ic_S4_P5E.1_K5.1_C5.1_H5.1_A5.1_F5.1_[A10G]_T5.1 (ssRNA) RNA: UUUGACAACUGAUCGUUCUUUCUUGUAUUAUUGUUCUUUCUCGAUCAGUUGUCUUU , what is its reported log10 of Kd?
1.07

For Ie_S4_P3E.2_K3.1_C3.2_H3.1_[+1CTT]_A3.1_F3.1_T3.2 (ssRNA) RNA: UUUGACAACUGAUCGUUCUUUCUCUUCUUGUAUAUAUAUUCUUUCUCGAUCAGUUGUCUUU , what is its reported log10 of Kd?
-0.01

For Ib_S4_P5E.1_K5.1_C5.1_H5.1_A5.1_[T5A]_F5.1_[T8A]_T5.1 (ssRNA) RNA: UUUGACAACUGAUCGUUCUUUCUUGUAAUAAUAUUCUUUCUCGAUCAGUUGUCUUU , what is its reported log10 of Kd?
1.14

For Ib_S4_P4E.1_K4.1_C4.1_H4.1_[T1C]_[G2T]_A4.1_F4.1_T4.1 (ssRNA) RNA: UUUGACAACUGAUCGUUCUUUCUCUUAUAUUAUUCUUUCUCGAUCAGUUGUCUUU , what is its reported log10 of Kd?
2.60

For UCUCUUUAUGUAUUAUUAACUCUCUU (ssRNA) [Id_ii_S1_P5E.2_K5.1_C5.2_[C-2T]_[T-1A]_H5.1_A5.1_F5.1_T5.2_[T11A]_[A12C]] , what is its reported log10 of Kd?
1.14

For UCUCUUCGUGUAUUAUUAGUUCUCUU (ssRNA) [Id_ii_S1_P5E.2_K5.1_C5.2_[T-1G]_H5.1_A5.1_F5.1_T5.2_[T11G]_[A12T]] , what is its reported log10 of Kd?
0.48
